System: NCI-H441
assayDetails: relative viability (nuclei count vs DMSO), 5 days (fraction); higher = more cells survive
cond: first compound 0.1265 µM
valueType: relative viability
// return just the number, without any unit appended

Solved entries (count: 3):
compound	relative viability
Clc1ccc(Nc2nnc(Cc3ccncc3)c3ccccc23)cc1 [Vatalanib] + CCNC(=O)c1noc(-c2cc(C(C)C)c(O)cc2O)c1-c1ccc(CN2CCOCC2)cc1 [Luminespib] (partner 0.01 µM)	0.251
COc1cc(N2CCC(C(N)=O)CC2)ccc1Nc1nc(N)c(Cl)c(Nc2ccccc2S(=O)(=O)C(C)C)n1 [HG-5-88-01] + COc1cc2c(Oc3ccc(NC(=O)C4(C(=O)Nc5ccc(F)cc5)CC4)cc3F)ccnc2cc1OCCCN1CCOCC1 [Foretinib] (partner 0.25 µM)	1.06
Clc1ccc(Nc2nnc(Cc3ccncc3)c3ccccc23)cc1 [Vatalanib] + CC(=O)Nc1cccc(-n2c(=O)n(C3CC3)c(=O)c3c(Nc4ccc(I)cc4F)n(C)c(=O)c(C)c32)c1 [Trametinib] (partner 0.02 µM)	0.366

Kindly consider the entry below.
For COc1cc(N2CCC(C(N)=O)CC2)ccc1Nc1nc(N)c(Cl)c(Nc2ccccc2S(=O)(=O)C(C)C)n1 [HG-5-88-01] + CS(=O)(=O)N1CCN(Cc2cc3nc(-c4cccc5[nH]ncc45)nc(N4CCOCC4)c3s2)CC1 [Pictilisib] (partner 1 µM) , what is its reported relative viability?
0.409
